System: 293T-HRE-GFP-luc cells
assay procedure: Cell-based reporter assay for IC50 determinations (HRE-luciferase, hypoxia)
condition set: 6 h, 6 hrs hypoxia (1% O2), luminescence
For each of the molecules below, state its IC50.

Task: Query: IC50; subject: CN1CCN(c2cccc(Cn3cc(-c4nc(-c5ccc(OC(F)(F)F)cc5)no4)ccc3=O)c2)CC1
Result: < 100 nM

Task: Query: IC50; subject: COCCOc1cccc(Cn2cc(-c3noc(-c4ccc(S(=O)(=O)NC(C)C)cc4)n3)ccc2=O)c1
Result: 100 to 1000 nM

Task: Query: IC50; subject: NS(=O)(=O)c1cccc(Cn2cc(-c3nc(-c4ccc(OC(F)(F)F)cc4)no3)ccc2=O)c1
Result: < 100 nM

Task: Query: IC50; subject: COCCOc1cccc(Cn2cc(-c3noc(-c4cnc(NC(C)C)nc4)n3)ccc2=O)c1
Result: < 100 nM

Task: Query: IC50; subject: N#Cc1cccc(Cn2cc(-c3nc(-c4ccc(OC(F)(F)F)cc4)no3)ccc2=O)c1
Result: < 100 nM

Task: Query: IC50; subject: CS(=O)(=O)CCCOc1cccc(Cn2cc(-c3noc(-c4ccc(OC(F)(F)F)cc4)n3)ccc2=O)c1
Result: < 100 nM

Task: Query: IC50; subject: Cc1ccc(-c2nnc(-c3ccc(OC(F)(F)F)cc3)o2)c(=O)n1Cc1ccnc(N2CCC(C#N)CC2)c1
Result: 100 to 1000 nM

###

Test system: 293T-HRE-GFP-luc cells
assay procedure: Cell-based reporter assay for IC50 determinations (HRE-luciferase, hypoxia)
condition set: 6 h, 6 hrs hypoxia (1% O2), luminescence
Counter-ions that a name gives are not always drawn.
property measured: IC50

Task: Query: IC50; subject: CN1CCN(c2cccc(Cn3cc(-c4noc(-c5ccc(S(=O)(=O)C(F)(F)F)cc5)n4)ccc3=O)c2)CC1
Result: < 0.1 µM

Task: Query: IC50; subject: Cc1ccc(-c2nc(-c3ccc(OC(F)(F)F)cc3)no2)c(=O)n1Cc1ccnc(N2CCN(C)CC2)c1 [Example 5, bis-trifluoroacetate]
Result: < 0.1 µM

Task: Query: IC50; subject: C=CCOc1cccc(Cn2cc(-c3nc(-c4ccc(OC(F)(F)F)cc4)no3)ccc2=O)c1
Result: < 0.1 µM

Task: Query: IC50; subject: Cc1ccc(-c2nc(-c3ccc(OC(F)(F)F)cc3)no2)c(=O)n1Cc1ccnc(N2CCCC2)c1 [Example 16, trifluoroacetate]
Result: < 0.1 µM

Task: Query: IC50; subject: COCCOc1cccc(Cn2cc(-c3noc(-c4ccc(S(=O)(=O)C(F)F)cc4)n3)ccc2=O)c1
Result: < 0.1 µM

Task: Query: IC50; subject: O=c1ccc(-c2nc(-c3ccc(OC(F)(F)F)cc3)no2)cn1Cc1cccc(CCCO)c1
Result: < 0.1 µM

Task: Query: IC50; subject: CN(C)C(=O)/C=C/c1cccc(Cn2cc(-c3nc(-c4ccc(OC(F)(F)F)cc4)no3)ccc2=O)c1
Result: < 0.1 µM

Task: Query: IC50; subject: COCCOc1cccc(Cn2cc(-c3noc(-c4cnc(OC)nc4)n3)ccc2=O)c1
Result: 0.1 to 1 µM

Task: Query: IC50; subject: COC(=O)C(C)(C)c1cccc(Cn2nc(-c3nc(-c4ccc(OC(F)(F)F)cc4)no3)ccc2=O)c1
Result: < 0.1 µM

Task: Query: IC50; subject: COc1cccc(Cn2c(C)ccc(-c3nc(-c4ccc(OC(F)(F)F)cc4)no3)c2=O)c1
Result: 0.1 to 1 µM

Task: Query: IC50; subject: Cc1ccc(-c2nc(-c3ccc(OC(F)(F)F)cc3)no2)c(=O)n1Cc1ccnc(N2CCCCC2)c1 [Example 15, trifluoroacetate]
Result: < 0.1 µM

Task: Query: IC50; subject: COCCOc1cccc(Cn2cc(-c3noc(-c4ccc(C(C)C)cc4)n3)ccc2=O)c1
Result: < 0.1 µM

Task: Query: IC50; subject: Cc1cnc(-c2nc(-c3ccc(C(C)(C)C)cc3)no2)nc1Cc1cccc(N2CCN(C)CC2)c1
Result: < 0.1 µM

Task: Query: IC50; subject: COCCOc1cccc(Cn2cc(-c3noc(-c4ccc5c(c4)OCO5)n3)ccc2=O)c1
Result: 0.1 to 1 µM

Task: Query: IC50; subject: CC(C)(O)c1cccc(Cn2cc(-c3nc(-c4ccc(OC(F)(F)F)cc4)no3)ccc2=O)c1
Result: < 0.1 µM

###

Tested on: 293T-HRE-GFP-luc cells
assay procedure: Cell-based reporter assay for IC50 determinations (HRE-luciferase, hypoxia)
condition set: 6 h, 6 hrs hypoxia (1% O2), luminescence
property measured: IC50

Task: Query: IC50; subject: CC(C)(O)c1cccc(Cn2cc(-c3nnc(-c4ccc(S(=O)(=O)C(F)(F)F)cc4)o3)ccc2=O)c1 [Example 260]
Result: 0.1 to 1 µM

Task: Query: IC50; subject: CN1CCN(c2cc(Cn3nc(-c4nc(-c5ccc(OC(F)(F)F)cc5)no4)ccc3=O)ccc2F)CC1 [Example 113]
Result: < 0.1 µM

Task: Query: IC50; subject: O=c1ccc(-c2nc(-c3ccc(OC(F)(F)F)cc3)no2)cn1Cc1cccc(Br)c1 [Example 141]
Result: 0.1 to 1 µM

Task: Query: IC50; subject: COCCOc1cccc(Cn2cc(-c3noc(-c4ccc(C(C)(C)O)cc4)n3)ccc2=O)c1 [Example 73]
Result: < 0.1 µM

Task: Query: IC50; subject: CN1CCN(C(=O)c2cc(Cn3nc(-c4nc(-c5ccc(OC(F)(F)F)cc5)no4)ccc3=O)ccn2)CC1 [Example 125]
Result: 1 to 10 µM

Task: Query: IC50; subject: O=c1c(-c2nc(-c3ccc(OC(F)(F)F)cc3)no2)cccn1Cc1ccnc(N2CCOCC2)c1 [Example 127]
Result: 0.1 to 1 µM

Task: Query: IC50; subject: COCCOc1cccc(Cn2cc(-c3noc(-c4ccc5c(c4)OC(F)(F)O5)n3)ccc2=O)c1 [Example 224]
Result: < 0.1 µM

###

Test system: 293T-HRE-GFP-luc cells
assay procedure: Cell-based reporter assay for IC50 determinations (HRE-luciferase, hypoxia)
condition set: 6 h, 6 hrs hypoxia (1% O2), luminescence
For each of the compounds below, state its IC50.

Task: Query: IC50; subject: COC(=O)c1cc(Cn2nc(-c3nc(-c4ccc(OC(F)(F)F)cc4)no3)ccc2=O)ccc1F
Result: < 100 nM

Task: Query: IC50; subject: O=c1ccc(-c2nc(-c3ccc(OC(F)(F)F)cc3)no2)cn1Cc1ccc(F)c(Br)c1
Result: 100 to 1000 nM

Task: Query: IC50; subject: CN1CCN(c2cccc(Cn3cc(-c4nnc(-c5ccc(OC(F)(F)F)cc5)o4)ccc3=O)c2)CC1 [Example 100, 2,2,2-trifluoroacetate]
Result: < 100 nM

Task: Query: IC50; subject: COCCOc1cccc(Cn2cc(-c3noc(-c4ccc(N5CCOC5=O)cc4)n3)ccc2=O)c1
Result: < 100 nM

Task: Query: IC50; subject: COC(=O)/C=C/c1cccc(Cn2cc(-c3nc(-c4ccc(OC(F)(F)F)cc4)no3)ccc2=O)c1
Result: < 100 nM

Task: Query: IC50; subject: COCCOc1cccc(Cn2cc(-c3noc(-c4ccc(C5CCSCC5)cc4)n3)ccc2=O)c1
Result: < 100 nM

Task: Query: IC50; subject: CNS(=O)(=O)c1ccc(-c2nc(-c3ccc(=O)n(Cc4cccc(OCCOC)c4)c3)no2)cc1
Result: 100 to 1000 nM

###

System: 293T-HRE-GFP-luc cells
assay procedure: Cell-based reporter assay for IC50 determinations (HRE-luciferase, hypoxia)
condition set: 6 h, 6 hrs hypoxia (1% O2), luminescence
Structures can show the parent of a compound that is named as a salt.
property measured: IC50

Task: Query: IC50; subject: Cc1ccc(-c2nc(-c3ccc(OC(F)(F)F)cc3)no2)c(=O)n1Cc1cccc(C(=O)N(C)C)c1 [Example 128]
Result: 100 to 1000 nM

Task: Query: IC50; subject: CS(=O)(=O)C1CCN(c2cccc(Cn3nc(-c4nc(-c5ccc(N6CCOCC6)cc5)no4)ccc3=O)c2)CC1 [Example 83]
Result: < 100 nM

Task: Query: IC50; subject: Cc1ccc(-c2nc(-c3ccc(OC(F)(F)F)cc3)no2)c(=O)n1Cc1cccc(N2CCN(C)CC2)c1 [Example 6, trifluoroacetate]
Result: < 100 nM

Task: Query: IC50; subject: O=c1ccc(-c2nc(-c3ccc(OC(F)(F)F)cc3)no2)cn1Cc1cccc(OCC(O)CO)c1 (stereo not shown) [Example 55]
Result: < 100 nM

###

Test system: 293T-HRE-GFP-luc cells
assay procedure: Cell-based reporter assay for IC50 determinations (HRE-luciferase, hypoxia)
condition set: 6 h, 6 hrs hypoxia (1% O2), luminescence
pIC50: −log10 of the molar value. Counter-ions that a name gives are not always drawn.
For each of the molecules below, state its pIC50.

Task: Query: pIC50; subject: CC(=O)N1CCN(c2cccc(Cn3cc(-c4nc(-c5ccc(OC(F)(F)F)cc5)no4)ccc3=O)c2)CC1
Result: > 7.00

Task: Query: pIC50; subject: CN1CCN(c2cc(Cn3nc(C(=O)Nc4ccc(OC(F)(F)F)cc4)ccc3=O)ccn2)CC1 [Example 3, bis trifluoroacetate salt]
Result: 6.00 to 7.00

Task: Query: pIC50; subject: Cc1ccc(Cn2nc(-c3nc(-c4ccc(OC(F)(F)F)cc4)no3)ccc2=O)cc1
Result: > 7.00

Task: Query: pIC50; subject: CC(C)c1ccc(-c2nc(-c3ccc(=O)n(Cc4cccc(OCCCS(C)(=O)=O)c4)c3)no2)cc1
Result: > 7.00

Task: Query: pIC50; subject: O=c1ccc(-c2nc(-c3ccc(OC(F)(F)F)cc3)no2)cn1Cc1cccc(O)c1
Result: 6.00 to 7.00

Task: Query: pIC50; subject: O=c1ccc(-c2nc(-c3ccc(OC(F)(F)F)cc3)no2)cn1Cc1ccnc(N2CCOCC2)c1
Result: > 7.00

Task: Query: pIC50; subject: CN(C)S(=O)(=O)c1cccc(Cn2cc(-c3nc(-c4ccc(OC(F)(F)F)cc4)no3)ccc2=O)c1
Result: > 7.00

Task: Query: pIC50; subject: COCCOc1cccc(Cn2cc(-c3nc(-c4ccc(OC(F)(F)F)cc4)co3)ccc2=O)c1
Result: > 7.00

Task: Query: pIC50; subject: CN1CCN(c2cc(Cn3cc(-c4ncc(-c5ccc(OC(F)(F)F)cc5)o4)ccc3=O)ccn2)CC1
Result: 6.00 to 7.00

Task: Query: pIC50; subject: COCCOc1cccc(Cn2cc(-c3noc(-c4cnc(N5CCCCC5)nc4)n3)ccc2=O)c1
Result: > 7.00

Task: Query: pIC50; subject: O=C(c1cccc(Cn2cc(-c3nc(-c4ccc(OC(F)(F)F)cc4)no3)ccc2=O)c1)N1CCOCC1
Result: > 7.00

Task: Query: pIC50; subject: CS(=O)(=O)C1CCN(c2cccc(Cn3nc(-c4nc(-c5ccc(OC(F)(F)F)cc5)no4)ccc3=O)c2)CC1
Result: > 7.00

Task: Query: pIC50; subject: O=c1ccc(-c2nc(-c3ccc(OC(F)(F)F)cc3)no2)cn1Cc1ccc(F)c(N2CCOCC2)c1
Result: > 7.00

Task: Query: pIC50; subject: O=C(CO)N1CCN(c2cccc(Cn3cc(-c4nc(-c5ccc(OC(F)(F)F)cc5)no4)ccc3=O)c2)CC1
Result: > 7.00

Task: Query: pIC50; subject: CCCNS(=O)(=O)c1ccc(-c2nc(-c3ccc(=O)n(Cc4cccc(OCCOC)c4)c3)no2)cc1
Result: 6.00 to 7.00

Task: Query: pIC50; subject: COCCOc1cccc(Cn2cc(-c3nc(-c4ccc(OC(F)(F)F)cc4)no3)ccc2=O)c1
Result: 6.00 to 7.00

Task: Query: pIC50; subject: CS(=O)(=O)C1CCN(c2cccc(Cn3nc(-c4nc(-c5ccc(OC(F)F)cc5)no4)ccc3=O)c2)CC1
Result: > 7.00

Task: Query: pIC50; subject: COCCOc1cccc(Cn2cc(-c3noc(-c4ccc(S(=O)(=O)CC#N)cc4)n3)ccc2=O)c1
Result: 6.00 to 7.00

Task: Query: pIC50; subject: CC(C)Oc1ccc(-c2nc(-c3ccc(=O)n(Cc4cccc(N5CCC(S(C)(=O)=O)CC5)c4)c3)no2)cc1
Result: > 7.00

Task: Query: pIC50; subject: COCCOc1cccc(Cn2cc(-c3noc(-c4ccc5c(c4)CCO5)n3)ccc2=O)c1
Result: 6.00 to 7.00

Task: Query: pIC50; subject: O=c1ccc(-c2nc(-c3ccc(OC(F)(F)F)cc3)no2)cn1Cc1cccc(N2CCC(O)CC2)c1
Result: > 7.00

Task: Query: pIC50; subject: COCCOc1cccc(Cn2cc(-c3noc(-c4cnc(NCC(C)C)nc4)n3)ccc2=O)c1
Result: > 7.00

Task: Query: pIC50; subject: COCCOc1cccc(Cn2cc(-c3noc(-c4ccc(S(=O)(=O)CC(C)C)cc4)n3)ccc2=O)c1
Result: > 7.00

Task: Query: pIC50; subject: COCCOc1cccc(Cn2cc(-c3noc(-c4cnc(N5CCS(=O)(=O)CC5)nc4)n3)ccc2=O)c1
Result: 6.00 to 7.00

Task: Query: pIC50; subject: CC(C)(C)OC(=O)NCCOc1cccc(Cn2cc(-c3nc(-c4ccc(OC(F)(F)F)cc4)no3)ccc2=O)c1
Result: > 7.00

Task: Query: pIC50; subject: CN1CCN(C(=O)Cc2cccc(Cn3nc(-c4nc(-c5ccc(OC(F)(F)F)cc5)no4)ccc3=O)c2)CC1
Result: 6.00 to 7.00

Task: Query: pIC50; subject: O=c1ccc(-c2nc(-c3ccc(OC(F)(F)F)cc3)no2)nn1Cc1cccc(OCCO)c1
Result: > 7.00

Task: Query: pIC50; subject: CC(C)Oc1ccc(-c2nc(-c3ccc(=O)n(Cc4cccc(OCCCS(C)(=O)=O)c4)c3)no2)cc1
Result: > 7.00

Task: Query: pIC50; subject: CS(=O)(=O)C1CCN(c2cccc(Cn3cc(-c4noc(-c5ccc(N6CCOCC6)cc5)n4)ccc3=O)c2)CC1
Result: > 7.00

Task: Query: pIC50; subject: CC(C)Oc1ccc(-c2nc(-c3ccc(=O)n(Cc4cccc(C(C)(C)O)c4)c3)no2)cc1
Result: > 7.00
